- targetOrSystem: AURKA (Aurora A) (Homo sapiens)
- Sequence (O14965 whole entry): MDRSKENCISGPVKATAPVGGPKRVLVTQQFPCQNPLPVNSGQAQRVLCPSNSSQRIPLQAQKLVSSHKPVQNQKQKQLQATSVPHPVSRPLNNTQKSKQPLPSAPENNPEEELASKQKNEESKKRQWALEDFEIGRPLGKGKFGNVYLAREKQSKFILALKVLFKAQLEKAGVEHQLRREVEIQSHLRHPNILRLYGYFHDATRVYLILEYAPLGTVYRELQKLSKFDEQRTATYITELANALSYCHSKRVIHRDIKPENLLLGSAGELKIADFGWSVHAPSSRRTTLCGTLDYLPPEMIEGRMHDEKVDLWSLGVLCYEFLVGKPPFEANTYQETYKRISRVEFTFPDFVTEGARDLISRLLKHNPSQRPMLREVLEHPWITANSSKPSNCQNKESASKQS
pIC50: −log10 of the molar value.

- mol: "O=c1c2ccccc2[se]n1-c1nc(N[C@H]2CC[Se]C2)c2nc[nH]c2n1"
  targetOrSystem: "AURKA (Aurora A) (Homo sapiens)"
  pIC50: 8.42

* * *

- targetOrSystem: SRC (Homo sapiens, UniProt P12931)
- Sequence (P12931 whole entry): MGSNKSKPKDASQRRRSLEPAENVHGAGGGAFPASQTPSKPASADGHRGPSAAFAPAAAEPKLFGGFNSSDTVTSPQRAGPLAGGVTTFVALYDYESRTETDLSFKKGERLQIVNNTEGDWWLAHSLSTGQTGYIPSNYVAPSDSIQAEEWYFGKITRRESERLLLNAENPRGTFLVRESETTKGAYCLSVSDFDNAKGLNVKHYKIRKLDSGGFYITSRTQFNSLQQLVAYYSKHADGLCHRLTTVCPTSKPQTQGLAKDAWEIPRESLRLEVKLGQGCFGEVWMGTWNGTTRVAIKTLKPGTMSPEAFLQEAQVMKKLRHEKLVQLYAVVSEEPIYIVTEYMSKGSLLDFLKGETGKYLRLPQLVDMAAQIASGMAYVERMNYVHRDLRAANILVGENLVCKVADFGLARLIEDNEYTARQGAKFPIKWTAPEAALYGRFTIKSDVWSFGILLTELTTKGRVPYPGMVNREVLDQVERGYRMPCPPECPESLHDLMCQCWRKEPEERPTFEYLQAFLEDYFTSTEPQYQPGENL
- assayRemarks: High-throughput kinase assay
- Assay type: biochemical
- measurementSetup: 100 nM; read-out: Percent inhibition of kinase activity in vitro, SRC

- compound: "O=c1c2ccccc2[se]n1-c1nc(NC2CCCCC2)c2nc[nH]c2n1"
  unitOfMeasurement: "%"
  inhibition at 0.1 µM: 1
- compound: "C[C@@H]1C(Nc2nc(-n3[se]c4ccccc4c3=O)nc3[nH]cnc23)C[C@H]2C[C@@H]1C2(C)C (some centres unmarked)"
  unitOfMeasurement: "%"
  inhibition at 0.1 µM: 4
- compound: "O=C1c2ccccc2CN1c1nc(NC2CCCCC2)c2nc[nH]c2n1 [SLLN-6C, reference compound]"
  unitOfMeasurement: "%"
  inhibition at 0.1 µM: 3
- compound: "O=c1c2ccccc2[se]n1-c1nc(NC2CC[Se]C2)c2nc[nH]c2n1 (centres unmarked)"
  unitOfMeasurement: "%"
  inhibition at 0.1 µM: 4
- compound: "O=c1c2ccccc2[se]n1-c1nc(N[C@H]2CC[Se]C2)c2nc[nH]c2n1"
  unitOfMeasurement: "%"
  inhibition at 0.1 µM: 4
